- assay_target: T315I ABL mutant kinase domain (Homo sapiens, UniProt P00519, T315I)
- Construct: ABL kinase domain (corresponding to residues 229-512); GST (N, cleaved yes); PreScission cleavage site (N, cleaved yes); made in house; host or cells: High5 insect cells (baculovirus)
- Sequence (P00519 229-512 T315I): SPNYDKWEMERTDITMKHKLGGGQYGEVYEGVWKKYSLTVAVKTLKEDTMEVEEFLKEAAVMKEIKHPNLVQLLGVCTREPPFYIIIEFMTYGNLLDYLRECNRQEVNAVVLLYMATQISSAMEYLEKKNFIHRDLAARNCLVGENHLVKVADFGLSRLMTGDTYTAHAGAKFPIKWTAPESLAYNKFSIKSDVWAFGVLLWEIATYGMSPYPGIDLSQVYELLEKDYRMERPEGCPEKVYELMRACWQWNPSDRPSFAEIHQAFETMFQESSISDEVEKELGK
- experimental_protocol: ATP site-dependent displacement assay, indolinone probe of 3.2
- Type: binding
- protocol_conditions: Table 4 validation; probe 3.2 at 0.2 μM
endpoint_label: Kd (nM)

- compound: "Nc1ncnc2c1ncn2[C@@H]1O[C@H](COP(=O)(O)OP(=O)(O)OP(O)(O)=S)[C@@H](O)[C@H]1O [ATPγS, reference compound]"
  endpoint_label: "Kd"
  readout_unit: "nM"
  recorded_number: 2610
